Would you mind telling me the reported pIC50 of each entry?
Formally, pIC50 is defined as -log10 of the concentration c, with c in mol/L.

Under Pim 2 (Homo sapiens): pIC50 value of `CC(C)Oc1cc(F)c(-c2nc(C(=O)Nc3cnccc3[C@@H]3C[C@H](C)C[C@H](N)C3)ccc2F)c(F)c1` ?
8.81

Hello, I am looking for reported pIC50 with Pim 2 (Homo sapiens) for `CC(C)[C@@H]1C[C@H](N)C[C@H](c2ccncc2NC(=O)c2ccc(F)c(-c3c(F)cc(C4(O)COC4)cc3F)n2)C1` . Could you help?
9.12

# query: pIC50 | item `CCOc1cc(F)c(-c2nc(C(=O)Nc3cnccc3N3C[C@@H](N)[C@H](O)[C@@H](C)C3)ccc2F)c(F)c1` | system: Pim 2 (Homo sapiens)
9.01

Record `COc1cc(F)c(-c2nc(C(=O)Nc3cnccc3N3C[C@@H](N)[C@H](O)[C@@H](C)C3)ccc2F)c(F)c1` : what is its pIC50 with Pim 2 (Homo sapiens)?
8.94

Please state recorded pIC50 (tested on Pim 2 (Homo sapiens)) of `C[C@H]1CN(c2ccncc2NC(=O)c2ccc(F)c(-c3c(F)cc(CC(C)(C)O)cc3F)n2)C[C@@H](N)[C@@H]1O`
8.88

Reported pIC50 for Pim 2 (Homo sapiens), given `C[C@H]1CN(c2ccncc2NC(=O)c2ccc(F)c(-c3c(F)cc(OCC4CCOCC4)cc3F)n2)C[C@@H](N)[C@@H]1O` ?
9.25

Under Pim 2 (Homo sapiens): pIC50 value of `C[C@H]1C[C@@H](c2ccncc2NC(=O)c2ccc(F)c(-c3c(F)cc(C(C)(C)C#N)cc3F)n2)C[C@@H](N)[C@@H]1O` ?
8.73

====

Pim 2 (Homo sapiens, UniProt Q9P1W9): recorded log10 of IC50 for assorted compounds
Sequence (Q9P1W9 whole entry): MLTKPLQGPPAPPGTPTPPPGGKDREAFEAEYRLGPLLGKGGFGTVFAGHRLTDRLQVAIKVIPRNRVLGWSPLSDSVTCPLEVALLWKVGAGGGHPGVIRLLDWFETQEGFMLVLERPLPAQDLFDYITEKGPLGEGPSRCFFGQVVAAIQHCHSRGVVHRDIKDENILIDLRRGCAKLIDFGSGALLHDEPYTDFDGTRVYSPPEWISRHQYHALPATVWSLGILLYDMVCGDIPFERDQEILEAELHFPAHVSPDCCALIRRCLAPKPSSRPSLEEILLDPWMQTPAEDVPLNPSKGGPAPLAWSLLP
Recorded IC50 (log10, nM)

Param item = `C[C@@H]1C[C@H](N)C[C@H](c2ccncc2NC(=O)c2nc(-c3c(F)cc(C(C)(C)O)cc3F)c(F)cc2N)C1` ; retrieve measured log10 of IC50.
-0.28

Need log10 of IC50 of `C[C@@H]1C[C@H](N)C[C@H](c2ccncc2NC(=O)c2cccc(-c3c(F)cc(OC4CCOCC4)cc3F)n2)C1` , thanks.
0.39

What value of log10 of IC50 has been recorded for this entry: `C[C@@H]1C[C@H](N)C[C@H](c2ccncc2NC(=O)c2ccc(F)c(-c3c(F)cc(OC(F)F)cc3F)n2)C1`
0.58

Tell me the measured log10 of IC50 of `Cc1noc(C)c1-c1cc(F)c(-c2nc(C(=O)Nc3cnccc3[C@@H]3C[C@H](C)C[C@H](N)C3)ccc2F)c(F)c1` , please.
1.48

I am curious: what log10 of IC50 value has been reported for `COC1(c2cc(F)c(-c3nc(C(=O)Nc4cnccc4[C@@H]4C[C@H](C)C[C@H](N)C4)ccc3F)c(F)c2)COC1` ?
0.41

For the compound shown here, `CC(C)[C@@H]1C[C@H](N)C[C@H](c2ccncc2NC(=O)c2ccc(F)c(-c3c(F)cc(C4CCOCC4)cc3F)n2)C1` , give the reported log10 of IC50.
-0.20

====

Experimental Endpoint: IC50 (nM)
// note: answer is a bare numeric in nM

Reported IC50 for Pim 1 (Homo sapiens), given `C[C@H]1C[C@@H](c2ccncc2NC(=O)c2ccc(F)c(-c3c(F)cc(C(C)(C)C#N)cc3F)n2)C[C@@H](N)[C@@H]1O` ?
0.04

Lookup: IC50 / Pim 1 (Homo sapiens) / `CC(C)OCc1cc(F)c(-c2nc(C(=O)Nc3cnccc3[C@@H]3C[C@H](C)C[C@H](N)C3)ccc2F)c(F)c1`
0.02

Observed IC50 on Pim 1 (Homo sapiens) for C[C@@H]1C[C@H](N)C[C@H](c2ccncc2NC(=O)c2ccc(F)c(-c3c(F)cc(OC4CCOC4)cc3F)n2)C1 (stereo in doubt) , please.
Sequence (P11309 whole entry): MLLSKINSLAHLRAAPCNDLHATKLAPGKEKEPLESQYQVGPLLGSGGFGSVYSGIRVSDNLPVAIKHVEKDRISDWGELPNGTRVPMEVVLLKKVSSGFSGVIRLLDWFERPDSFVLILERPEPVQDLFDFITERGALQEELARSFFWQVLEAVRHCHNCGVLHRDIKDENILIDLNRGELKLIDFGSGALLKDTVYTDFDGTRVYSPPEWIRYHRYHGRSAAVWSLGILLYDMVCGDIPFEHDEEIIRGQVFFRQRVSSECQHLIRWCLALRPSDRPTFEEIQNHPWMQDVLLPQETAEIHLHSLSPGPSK
0.02

Which IC50 is reported with Pim 1 (Homo sapiens) for this entry: `COc1ccc(F)c(-c2nc(C(=O)Nc3cnccc3N3C[C@@H](N)[C@H](O)[C@@H](C)C3)ccc2F)c1F` ?
0.03

Kindly state the measured IC50 obtained for `C[C@@H]1C[C@H](N)C[C@H](c2ccncc2NC(=O)c2ccc(F)c(-c3c(F)cc4c(c3F)OCC[C@@]4(C)O)n2)C1` with Pim 1 (Homo sapiens).
0.02

Form field: IC50 recorded for `C[C@H]1CN(c2ccncc2NC(=O)c2nc(-c3c(F)cc(OC4CCOCC4)cc3F)c(F)cc2N)C[C@@H](N)[C@@H]1O` with Pim 1 (Homo sapiens) (enter value)
0.01

Short answer please: IC50, Pim 1 (Homo sapiens), entry `COC(C)(C)c1cc(F)c(-c2nc(C(=O)Nc3cnccc3[C@@H]3C[C@H](C)C[C@H](N)C3)c(N)cc2F)c(F)c1`
0.02

So what IC50 did `COC1(c2cc(F)c(-c3nc(C(=O)Nc4cnccc4[C@@H]4C[C@H](C)C[C@H](N)C4)ccc3F)c(F)c2)COC1` get with Pim 1 (Homo sapiens)?
0.05

Kindly state the measured IC50 obtained for `C[C@@H]1C[C@H](N)C[C@H](c2ccncc2NC(=O)c2ccc(F)c(-c3c(F)cc(OCCO)cc3F)n2)C1` with Pim 1 (Homo sapiens).
0.03

Report IC50 for `C[C@@H]1C[C@H](N)C[C@H](c2ccncc2NC(=O)c2ccc(F)c(-c3c(F)cc(COC4CCOCC4)cc3F)n2)C1` tested on Pim 1 (Homo sapiens).
0.03

Any idea what IC50 came out for `C[C@@H]1C[C@H](N)C[C@H](c2ccncc2NC(=O)c2ccc(F)c(-c3c(F)cc([C@@H](O)CO)cc3F)n2)C1` on Pim 1 (Homo sapiens)?
0.05

Reported IC50 for Pim 1 (Homo sapiens), given `C[C@H]1C[C@@H](c2ccncc2NC(=O)c2ccc(F)c(-c3c(F)cc(OCC4CC4)cc3F)n2)C[C@@H](N)[C@@H]1O` ?
0.03

====

Target or system Pim 1 (Homo sapiens, UniProt P11309): recorded pIC50 listed per item.
Give only the number. pIC50 is defined as minus log10 of concentration in molar units.

Which pIC50 is reported for this compound? C[C@@H]1C[C@H](N)C[C@H](c2ccncc2NC(=O)c2nc(-c3c(F)cc(C(C)(C)O)cc3F)c(F)cc2N)C1 [Example 100]
11.00

Which measured pIC50 value corresponds to C=CCOc1ccc(F)c(-c2nc(C(=O)Nc3cnccc3[C@H]3C[C@@H](N)[C@H](O)[C@@H](C)C3)ccc2F)c1F [Example 194] ?
10.30

Quick one: pIC50 of C[C@@H]1C[C@H](N)C[C@H](c2ccncc2NC(=O)c2ccc(F)c(-c3c(F)cc([C@@H]4CCOC4)cc3F)n2)C1 [Example 206] ?
11.00

Give the measured pIC50 of COCCOc1cc(F)c(-c2nc(C(=O)Nc3cnccc3[C@H]3C[C@@H](N)[C@H](O)[C@@H](C)C3)c(N)cc2F)c(F)c1 [Example 120] .
10.52

What value of measured pIC50 is listed for C[C@H]1C[C@@H](c2ccncc2NC(=O)c2nc(-c3c(F)cc(C(C)(C)O)cc3F)c(F)cc2N)C[C@@H](N)[C@@H]1O [Example 101] ?
10.70

Could you tell me which pIC50 is on file for C[C@H]1CN(c2ccncc2NC(=O)c2ccc(F)c(-c3c(F)cc(C4(O)COC4)cc3F)n2)C[C@@H](N)[C@@H]1O [Example 89] ?
11.00

Which pIC50 is listed for CC(C)[C@@H]1C[C@H](N)C[C@H](c2ccncc2NC(=O)c2ccc(F)c(-c3c(F)cc(C4(O)COC4)cc3F)n2)C1 [Example 111] ?
11.00

Which value of pIC50 has been reported for CC(C)Oc1cc(F)c(-c2nc(C(=O)Nc3cnccc3[C@H]3C[C@@H](N)[C@H](O)[C@@H](C)C3)c(N)cc2F)c(F)c1 [Example 97] in the records?
10.70
